assay: log P determination by HPLC on reversed-phase (C18) columns, OECD Guideline 117; format: physicochemical; conditions: pH 7.8
Field: logp-neutral. Provide a value for each of the compounds that follow.

Form field logp-neutral, entry COc1ncc(-c2ncc(C(=O)N(C)c3cccnc3)n2C)cc1Cl [Example 90] : 1.68

Form field logp-neutral, entry CN(C(=O)c1cnc(-c2cnn(-c3ccccc3)c2)n1C)c1cccnc1 [Example 26] : 1.70

Form field logp-neutral, entry COc1cc(-c2ncc(C(=O)N(C)c3cccnc3)n2C)cc(OC)n1 [Example 97] : 1.67

Form field logp-neutral, entry CSc1cc(-c2ncc(C(=O)N(C)c3cccnc3)n2C)ccc1C [Example 23] : 2.03

Form field logp-neutral, entry CCOC(=O)COc1cccc(-c2ncc(C(=O)N(C)c3cccnc3)n2C)c1 [Example 41] : 1.70

Form field logp-neutral, entry CC(C)n1cc(-c2ncc(C(=O)N(C)c3cccnc3)n2C)nn1 [Example 73] : 1.24

Form field logp-neutral, entry CN(C(=O)c1cnc(-c2ncccc2Cl)n1C)c1cccnc1 [Example 106] : 1.1

Form field logp-neutral, entry CN(C(=O)c1cnc(-c2cc(Cl)cc(C(F)(F)F)c2)n1C)c1cccnc1 [Example 51] : 2.43

Form field logp-neutral, entry CC(C)Oc1ccc(-c2ncc(C(=O)N(C)c3cccnc3)n2C)cn1 [Example 102] : 1.79

Form field logp-neutral, entry COc1ccccc1-c1ncc(C(=O)N(C)c2cccnc2)n1C [Example 82] : 1.45

Form field logp-neutral, entry CSc1ncccc1-c1ncc(C(=O)N(C)c2cccnc2)n1C [Example 91] : 1.33

Form field logp-neutral, entry CSc1cccc(-c2ncc(C(=O)N(C)c3cccnc3)n2C)c1 [Example 3] : 1.75

Form field logp-neutral, entry CN(C(=O)c1cnc(-c2cc(F)cc(C#N)c2)n1C)c1cccnc1 [Example 60] : 1.52

Form field logp-neutral, entry COc1cc(-c2ncc(C(=O)N(C)c3cccnc3)n2C)ccn1 [Example 94] : 1.26

Form field logp-neutral, entry COc1ncccc1-c1ncc(C(=O)N(C)c2cccnc2)n1C [Example 88] : 1.16

Form field logp-neutral, entry COc1ccc(-c2ncc(C(=O)N(C)c3cccnc3)n2C)c(OC)c1 [Example 84] : 1.54

Form field logp-neutral, entry COC(=O)c1cc(F)ccc1-c1ncc(C(=O)N(C)c2cccnc2)n1C [Example 29] : 1.55

Form field logp-neutral, entry CN(C(=O)c1cnc(-c2cccc(COC(=O)C3CC3)c2)n1C)c1cccnc1 [Example 45] : 1.86

Form field logp-neutral, entry CN(C(=O)c1cnc(-c2cccc(SCC3CC3)c2)n1C)c1cccnc1 [Example 18] : 2.36

---

Field: chromatographic logP. Provide a value for each of the compounds that follow.
experiment: log P determination by HPLC on reversed-phase (C18) columns, OECD Guideline 117; type: physicochemical; details: reversed-phase (C18) HPLC column, pH 2.7, HPLC, acidic range pH 2.7, 0.1% aqueous formic acid/acetonitrile; read-out: logp-acidic
Give the figure only, with no unit attached.

Form field chromatographic logP, entry "Cc1cc(F)c(B2OC(C)(C)C(C)(C)O2)cc1SCC(F)(F)F" : 4.89

Form field chromatographic logP, entry "CN(C(=O)c1cnc(-c2cccnc2)n1C)c1cccnc1" : 0.18

Form field chromatographic logP, entry "CN(C(=O)c1cnc(-c2cc(-c3ccccc3)no2)n1C)c1cccnc1" : 1.9

Form field chromatographic logP, entry "COc1ncc(Cl)cc1-c1ncc(C(=O)N(C)c2cccnc2)n1C" : 1.35

The reported numbers originate from patent US10807968B2.
